- tested on: T1, MBD-Halo-AF660 (Homo sapiens, UniProt Q9UIS9 1-77)
- T1 sequence: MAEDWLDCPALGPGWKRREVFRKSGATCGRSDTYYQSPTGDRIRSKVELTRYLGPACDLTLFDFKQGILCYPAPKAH
- method description: single-molecule TIRF
observed property: binding result

M1b-A39m-CP (dsDNA, 5mC strand 1: 53; strand 2: 2,11,13,16,24,26,34) DNA 1: GTCTTCCTGCTGATGCAATCCGCTAGGTCGCGAGTCTCCGCCGCGAGAGGGCCGG DNA 2: CCGGCCCTCTCGCGGCGGAGACTCGCGACCTAGCGGATT DNA 3: GCATCAGCAGGAAGAC | no binding
M0-CP (structured_DNA) DNA 1: GTCTTCCTGCTGATGCAATCCGCTAGGTCGCGAGTCTCCGCCGCGAGAGGGCCGG DNA 2: GCATCAGCAGGAAGAC | no binding
M2c-A39m-CP (dsDNA, 5mC strand 1: 42,53; strand 2: 2,11,13,16,24,26,34) DNA 1: GTCTTCCTGCTGATGCAATCCGCTAGGTCGCGAGTCTCCGCCGCGAGAGGGCCGG DNA 2: CCGGCCCTCTCGCGGCGGAGACTCGCGACCTAGCGGATT DNA 3: GCATCAGCAGGAAGAC | no binding
